B1: H2-Kb / Ed45 (parent complex)
chain 1: GEQVEQRPPHLSVREGDSAVIICTYTDPNSYYFFWYKQEPGAGLQLLMKVFSSTEINEGQGFTVLLNKKDKQLSLNLTAAHPGDSAVYFCAVSGTNAYKVIFGKGTHLHVLP
chain 2: EAAVTQSPRSKVAVTGGKVTLSCHQTNNHDYMYWYRQDTGHGLRLIHYSYVADSTEKGDIPDGYKASRPSQENFSLILELASLSQTAVYFCASARGFQDTQYFGPGTRLLVL
chain 3: not shown
chain 4: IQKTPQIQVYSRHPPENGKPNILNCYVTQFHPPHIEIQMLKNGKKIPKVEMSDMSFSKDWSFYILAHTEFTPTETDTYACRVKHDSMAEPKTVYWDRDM
chain 5: SIINFEKL

# Variants of: B1
# Measurement description: % of reporter cells activated (NFAT-GFP), raw; also: test concentration or dose not given here
Recorded metric: ratio to parent

Some entries whose results are on file:
chain 5 F5D: 1.54
chain 5 L8N: 1.6
chain 5 N4C: 0.183
chain 5 K7C: 0.0944
chain 5 I3N: 1.85

a: chain 5 S1M
b: chain 5 S1T
Request: Of a and b , which one carries the higher reported ratio to parent? Your answer should be the label attached to the chosen record.
Response: b

P: chain 5 I2D
Q: chain 5 K7F
Request: From the items above, decide which of P and Q has the lower ratio to parent reading. Your answer should be the label attached to the chosen record.
Response: Q
(Q: 0.418, P: 1.34)

A: chain 5 E6T
B: chain 5 S1C
C: chain 5 N4P
D: chain 5 F5G
E: chain 5 L8C
Request: Rank ascending by ratio to parent. Labels, requested order.
Response: C, B, D, A, E
(C: 0.0883, B: 0.234, D: 0.495, A: 0.91, E: 1.72)

A: chain 5 F5P
B: chain 5 K7L
Request: From the items above, decide which of A and B has the lower ratio to parent reading. Your answer should be the label attached to the chosen record.
Response: B
